Data credit: patent US20250223303A1

I'd appreciate it if you could supply IC50 values for the items below.

Query CC(C)Sc1ccc2c(c1C(=O)O)OB(O)[C@@H]1C[C@H]21 on IMP-1 (Serratia marcescens); IC50 returned: < 5.1 nM

Readout IC50 for NCCNC1CCC(CC(=O)N[C@H]2Cc3cccc(C(=O)O)c3OB2O)CC1 (stereo partly drawn) [VNRX-5133, reference compound] , test system IMP-1 (Serratia marcescens), was > 10000 nM

Result for O=C(O)c1c(S[C@H]2CCOC2)ccc2c1OB(O)[C@@H]1C[C@H]21 , tested on IMP-1 (Serratia marcescens), IC50: < 5.1 nM

Assay IMP-1 (Serratia marcescens), sample NC(=O)[C@@H]1CC[C@@H]2CN1C(=O)N2OS(=O)(=O)O [Avibactam, reference compound] , IC50 read: > 10000 nM

Form field IC50 for item CN1CC(CCSc2ccc3c(c2C(=O)O)OB(O)[C@@H]2C[C@H]32)C1 on IMP-1 (Serratia marcescens): < 5.1 nM

Record CSc1ccc2c(c1C(=O)O)OB(O)[C@@H]1C[C@H]21 / IMP-1 (Serratia marcescens), IC50 recorded as < 5.1 nM

---

- Test system: Acinetobacter baumannii ARLG-1809 OXA-23
- procedureDetails: MIC test of compounds in combination with antibiotics, Acinetobacter baumannii ARLG-1809
- conditionInfo: Biapenem + compound (8 μg/mL)
What MIC of biapenem in combination with compound, Acinetobacter baumannii ARLG-1809 OXA-23 was measured for each of the following?
Give the value, in units of mg/L, as a plain number.

MIC of biapenem in combination with compound, Acinetobacter baumannii ARLG-1809 OXA-23 reported for this molecule C[C@H](Sc1ccc2c(c1C(=O)O)OB(O)[C@@H]1C[C@H]21)[C@@H]1CCCO1 [Compound 18-a] : 2

According to the records, this molecule CC(Sc1ccc2c(c1C(=O)O)OB(O)C1CC21)C1CC1 (single isomer, unassigned) [Compound 16-d] displays MIC of biapenem in combination with compound, Acinetobacter baumannii ARLG-1809 OXA-23 of 0.5

# MIC of biapenem in combination with compound, Acinetobacter baumannii ARLG-1809 OXA-23 of O=C(O)c1c(SCCN2CCOCC2)ccc2c1OB(O)C1CC21 (single isomer, unassigned) [Compound 15-a] = 2

Lab note: measured MIC of biapenem in combination with compound, Acinetobacter baumannii ARLG-1809 OXA-23 of NC1COCC1Sc1ccc2c(c1C(=O)O)OB(O)C1CC21 (single isomer, unassigned) [Compound 11_P2] was 0.25

---

Hi there, I'd appreciate the recorded MIC of biapenem in combination with compound, Escherichia coli ARLG-2829 NDM-5, OXA-1 for every entry that follows.
- Tested on: Escherichia coli ARLG 2829
- procedureDetails: MIC test of compounds in combination with antibiotics, Escherichia coli ARLG 2829
- conditionInfo: Biapenem + compound (8 μg/mL)
Hi! Could you send only the number? It should be in µg/mL, unit omitted.

According to the records, this compound CC(Sc1ccc2c(c1C(=O)O)OB(O)C1CC21)C1CCOCC1 (single isomer, unassigned) [Compound 17-a] displays MIC of biapenem in combination with compound, Escherichia coli ARLG-2829 NDM-5, OXA-1 of 0.25

MIC of biapenem in combination with compound, Escherichia coli ARLG-2829 NDM-5, OXA-1 for O=C(O)c1c(SCCN2CCOCC2)ccc2c1OB(O)C1CC21 (single isomer, unassigned) [Compound 15-a] is 1

# compound C[C@@H](Sc1ccc2c(c1C(=O)O)OB(O)[C@H]1C[C@@H]21)[C@@H]1CCCO1 ; its MIC of biapenem in combination with compound, Escherichia coli ARLG-2829 NDM-5, OXA-1 = 0.5

For CC(Sc1ccc2c(c1C(=O)O)OB(O)C1CC21)C1CCOCC1 (single isomer, unassigned) [Compound 17-b] the compound record lists MIC of biapenem in combination with compound, Escherichia coli ARLG-2829 NDM-5, OXA-1 as 0.25

MIC of biapenem in combination with compound, Escherichia coli ARLG-2829 NDM-5, OXA-1 in this record for NC1COCC1Sc1ccc2c(c1C(=O)O)OB(O)C1CC21 (single isomer, unassigned) [Compound 11_P1] : 0.25
